In what follows, each item is paired with its pKi for Carbonic anhydrase (Candida albicans (strain SC5314 / ATCC MYA-2876) (Yeast)).
Value format note: pKi is -log10 of concentration (mol/L); just state the number.

Recorded pKi, per entry:
N#Cc1ccccc1NC(=O)Nc1ccc(OS(N)(=O)=O)cc1 :: 6.81
CC(C)c1ccccc1NC(=O)Nc1ccc(NS(N)(=O)=O)cc1 :: 7.26
NS(=O)(=O)Nc1ccc(NC(=O)NCc2ccco2)cc1 :: 7.24
NS(=O)(=O)Nc1ccc(NC(=O)NCc2ccccc2)cc1 :: 6.84

Shifting focus to the molecule that follows.
Req: Dear colleague, I am looking for the recorded pKi of the following molecule: NS(=O)(=O)Oc1ccc(NC(=O)Nc2cccc(Cl)c2)cc1
Resp: 6.91

----------
Target: Carbonic anhydrase (Candida glabrata CBS 138, UniProt Q6FTL6)
Sequence (Q6FTL6 whole entry): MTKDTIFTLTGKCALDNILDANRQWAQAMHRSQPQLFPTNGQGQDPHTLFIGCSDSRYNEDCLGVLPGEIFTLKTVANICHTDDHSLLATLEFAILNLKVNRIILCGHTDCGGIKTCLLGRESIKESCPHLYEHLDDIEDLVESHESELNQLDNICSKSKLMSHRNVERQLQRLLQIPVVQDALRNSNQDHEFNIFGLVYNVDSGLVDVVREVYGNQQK
Set-up: species or system Nakaseomyces glabratus
readout-kind: Ki (nM)
Only the number, expressed in nM, is required.

Req: For the molecule Nc1ccc(S(N)(=O)=O)cc1I , what Ki is on record?
Resp: 128

----------
Below is a list of entries, each paired with its recorded Ki value.
Biological target: Carbonic anhydrase (Candida albicans (strain SC5314 / ATCC MYA-2876) (Yeast), UniProt Q5AJ71)
Sequence (Q5AJ71 whole entry): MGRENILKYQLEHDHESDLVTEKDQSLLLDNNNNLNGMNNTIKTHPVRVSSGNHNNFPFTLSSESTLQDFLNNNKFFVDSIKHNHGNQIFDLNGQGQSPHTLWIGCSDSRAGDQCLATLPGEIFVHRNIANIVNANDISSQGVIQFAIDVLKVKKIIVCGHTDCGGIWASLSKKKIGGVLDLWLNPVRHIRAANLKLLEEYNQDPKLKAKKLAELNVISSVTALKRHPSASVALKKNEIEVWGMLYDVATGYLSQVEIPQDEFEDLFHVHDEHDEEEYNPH
Give the value, in units of nM, as a plain number.

NS(=O)(=O)Oc1ccc(NC(=O)Nc2c(F)cc(F)cc2Br)cc1 :: 84
Cc1cc(C)cc(NC(=O)Nc2ccc(NS(N)(=O)=O)cc2)c1 :: 139
NS(=O)(=O)Oc1ccc(NC(=O)Nc2cccc3ccccc23)cc1 :: 1430

Req: Need Ki, item NS(=O)(=O)Nc1ccc(NC(=O)NCCc2ccccc2)cc1
Resp: 130

----------
pKi, Carbonic anhydrase (Candida albicans (strain SC5314 / ATCC MYA-2876) (Yeast)): measured values
Reminder that pKi is minus the log10 of a molar concentration.

Observe how each entry below is paired with its result.
NS(=O)(=O)c1ccc(NC(=O)NCCc2ccccc2)cc1 :: 6.91
NS(=O)(=O)Oc1ccc(NC(=O)Nc2ccc3c(c2)Cc2ccccc2-3)cc1 :: 7.12
NS(=O)(=O)Nc1ccc(NC(=O)Nc2cccc([N+](=O)[O-])c2)cc1 :: 6.96

Req: Can you look up the measured pKi of NS(=O)(=O)Oc1ccc(NC(=O)NCc2ccccc2)cc1 for me?
Resp: 6.86

Req: Another compound to look at: NS(=O)(=O)Nc1ccc(NC(=O)Nc2ccc(Cl)cc2)cc1
Resp: 6.99

Req: Can you check NS(=O)(=O)Nc1ccc(NC(=O)Nc2ccccc2-c2ccccc2)cc1 next?
Resp: 7.14
